- Study system: MAO-A (Homo sapiens, UniProt P21397)
- Construct: made in house; host or cells: yeast
- Sequence (P21397 whole entry): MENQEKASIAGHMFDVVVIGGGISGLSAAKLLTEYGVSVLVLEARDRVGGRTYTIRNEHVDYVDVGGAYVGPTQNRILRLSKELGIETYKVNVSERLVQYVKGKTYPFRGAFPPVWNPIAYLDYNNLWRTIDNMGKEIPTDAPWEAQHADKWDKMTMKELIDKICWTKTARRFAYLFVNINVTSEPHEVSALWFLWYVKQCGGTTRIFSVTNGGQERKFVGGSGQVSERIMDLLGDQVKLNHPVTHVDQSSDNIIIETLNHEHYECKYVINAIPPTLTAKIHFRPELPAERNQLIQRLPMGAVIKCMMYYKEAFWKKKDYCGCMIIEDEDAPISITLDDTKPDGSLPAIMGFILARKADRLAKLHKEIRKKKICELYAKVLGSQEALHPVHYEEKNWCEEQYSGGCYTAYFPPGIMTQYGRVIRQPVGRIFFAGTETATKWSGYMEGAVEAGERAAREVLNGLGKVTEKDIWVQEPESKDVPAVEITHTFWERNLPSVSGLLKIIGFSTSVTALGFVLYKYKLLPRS
- Measurement notes: MAO-A standard in-vitro assay, human liver enzyme expressed in yeast
- Format: biochemical
- Condition summary: read-out: Ki value against MAO-A (converted)
Measure: Ki (µM)

(1) CCOC(=O)c1cc(-c2ccc(N3C[C@H](CNC(C)=O)OC3=O)cc2F)on1 [acetamide analogue of Example 2, reference compound]
(2) CC(=O)NC[C@H]1CN(c2ccc(-c3c[nH]nn3)c(F)c2)C(=O)O1 [acetamide analogue of Example 7, reference compound]
(3) O=C1O[C@@H](Cn2ccnn2)CN1c1ccc(-c2c[nH]nn2)c(F)c1 [Example 7]
(4) CCOC(=O)c1cc(-c2ccc(N3C[C@H](Cn4ccnn4)OC3=O)cc2F)on1 [Example 2]
Request: Put the above compounds in order of rising Ki, beginning with the smallest. Use the labels to give the requested order.
Response: 1, 4, 2, 3
(1: 15.3 µM, 4: 47.3 µM, 2: 106 µM, 3: 437 µM)
